test: Viability of MDCK cells with DOX alone or coincubated with 15 (WST-1); type: cell-based, canine; details: dog, MDCK cells (sensitive, parental); read-out: cell viability
measurement.type: viability at 72 h, 5 μM

Exercise: Please look up its viability at 72 h, 5 μM: COc1cccc2c1C(=O)c1c(O)c3c(c(O)c1C2=O)C[C@@](O)(C(=O)CO)C[C@@H]3O[C@H]1C[C@H](N)[C@H](O)[C@H](C)O1 [DOX, doxorubicin, reference compound]
Key: < 30%
